# system_tested: Metabotropic glutamate receptor 6 (Rattus norvegicus, UniProt P35349)
# Sequence (P35349 whole entry): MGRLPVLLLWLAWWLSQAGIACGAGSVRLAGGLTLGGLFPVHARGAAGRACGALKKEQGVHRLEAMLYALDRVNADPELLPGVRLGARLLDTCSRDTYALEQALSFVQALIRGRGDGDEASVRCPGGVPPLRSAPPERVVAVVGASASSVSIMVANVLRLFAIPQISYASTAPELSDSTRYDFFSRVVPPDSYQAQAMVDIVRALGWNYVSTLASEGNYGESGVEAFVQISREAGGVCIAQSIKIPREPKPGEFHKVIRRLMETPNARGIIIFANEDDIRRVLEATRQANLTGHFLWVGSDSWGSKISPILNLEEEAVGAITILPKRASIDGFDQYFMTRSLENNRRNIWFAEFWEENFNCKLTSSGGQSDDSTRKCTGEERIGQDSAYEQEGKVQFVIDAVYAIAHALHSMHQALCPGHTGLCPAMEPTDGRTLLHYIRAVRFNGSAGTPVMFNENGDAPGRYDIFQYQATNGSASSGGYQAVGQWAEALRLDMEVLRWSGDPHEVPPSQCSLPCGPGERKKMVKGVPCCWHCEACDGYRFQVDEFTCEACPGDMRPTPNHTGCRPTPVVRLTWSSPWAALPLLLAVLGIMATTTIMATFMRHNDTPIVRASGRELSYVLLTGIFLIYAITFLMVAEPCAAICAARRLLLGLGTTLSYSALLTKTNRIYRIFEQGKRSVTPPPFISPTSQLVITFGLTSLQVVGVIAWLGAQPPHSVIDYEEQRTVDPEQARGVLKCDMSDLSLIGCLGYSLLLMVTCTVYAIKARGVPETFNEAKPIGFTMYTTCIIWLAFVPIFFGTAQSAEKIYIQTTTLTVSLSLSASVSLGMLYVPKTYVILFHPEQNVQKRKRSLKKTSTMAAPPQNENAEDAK
# procedure_details: Tested for the agonistic activity against Metabotropic glutamate receptor 6
readout_label: pEC50
Hey, just a heads up that pEC50 is the negative log base 10 of the concentration in molar.

Per the record, O=C(N[C@@]1(C(=O)O)CN[C@@H](C(=O)O)C1)c1ccccc1 has pEC50 of 3.00

Per the record, N[C@@]1(C(=O)O)CN[C@@H](C(=O)O)C1 has pEC50 of 3.96

Per the record, N[C@]1(C(=O)O)C[C@H](C(=O)O)N(Cc2ccccc2)C1 has pEC50 of 4.70

Per the record, N[C@@]1(C(=O)O)CC[C@@H](C(=O)O)C1 has pEC50 of 4.22

Per the record, NC(CCP(=O)(O)O)C(=O)O (stereo not given) has pEC50 of 6.00

====

# system_tested: Metabotropic glutamate receptor 1 (Rattus norvegicus)
# Sequence (P23385 whole entry): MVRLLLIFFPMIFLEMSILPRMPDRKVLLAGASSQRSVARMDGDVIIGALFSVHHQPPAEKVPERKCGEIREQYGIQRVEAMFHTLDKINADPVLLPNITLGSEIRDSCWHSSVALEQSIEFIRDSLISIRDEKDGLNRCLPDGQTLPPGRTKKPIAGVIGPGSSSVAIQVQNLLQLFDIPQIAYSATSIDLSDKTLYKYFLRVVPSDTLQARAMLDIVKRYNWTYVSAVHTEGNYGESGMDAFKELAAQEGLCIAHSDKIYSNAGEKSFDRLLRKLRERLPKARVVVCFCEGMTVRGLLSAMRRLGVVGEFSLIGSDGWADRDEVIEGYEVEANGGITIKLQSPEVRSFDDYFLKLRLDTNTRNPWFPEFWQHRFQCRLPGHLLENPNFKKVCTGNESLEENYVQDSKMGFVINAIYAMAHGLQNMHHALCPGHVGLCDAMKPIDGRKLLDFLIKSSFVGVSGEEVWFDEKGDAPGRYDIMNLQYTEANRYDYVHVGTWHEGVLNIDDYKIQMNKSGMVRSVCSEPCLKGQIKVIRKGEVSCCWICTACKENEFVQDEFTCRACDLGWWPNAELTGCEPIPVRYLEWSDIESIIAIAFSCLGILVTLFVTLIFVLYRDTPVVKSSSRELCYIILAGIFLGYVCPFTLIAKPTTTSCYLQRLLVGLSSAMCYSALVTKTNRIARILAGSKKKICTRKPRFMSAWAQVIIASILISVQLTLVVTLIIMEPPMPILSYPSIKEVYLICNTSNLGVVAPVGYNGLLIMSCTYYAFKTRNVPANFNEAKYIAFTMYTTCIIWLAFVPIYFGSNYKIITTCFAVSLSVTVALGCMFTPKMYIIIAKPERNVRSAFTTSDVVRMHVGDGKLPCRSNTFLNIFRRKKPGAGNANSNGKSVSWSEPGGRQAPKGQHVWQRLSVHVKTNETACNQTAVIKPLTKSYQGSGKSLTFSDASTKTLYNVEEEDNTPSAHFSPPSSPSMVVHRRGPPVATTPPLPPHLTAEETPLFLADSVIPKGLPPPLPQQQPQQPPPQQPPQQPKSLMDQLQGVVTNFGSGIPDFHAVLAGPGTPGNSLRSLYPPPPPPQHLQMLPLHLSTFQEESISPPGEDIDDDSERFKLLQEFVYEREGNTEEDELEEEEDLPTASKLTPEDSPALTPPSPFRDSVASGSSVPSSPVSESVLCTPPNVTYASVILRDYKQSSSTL
# procedure_details: Tested for the agonistic activity against Metabotropic glutamate receptor 1
# Format: functional
readout_label: EC50 (µM)
State the answer as a number, implicitly in µM.

For N[C@@]1(C(=O)O)CN[C@@H](C(=O)O)C1 on Metabotropic glutamate receptor 1 (Rattus norvegicus), measured EC50 was 100

====

# system_tested: Metabotropic glutamate receptor 2 (Rattus norvegicus)
# Sequence (P31421 whole entry): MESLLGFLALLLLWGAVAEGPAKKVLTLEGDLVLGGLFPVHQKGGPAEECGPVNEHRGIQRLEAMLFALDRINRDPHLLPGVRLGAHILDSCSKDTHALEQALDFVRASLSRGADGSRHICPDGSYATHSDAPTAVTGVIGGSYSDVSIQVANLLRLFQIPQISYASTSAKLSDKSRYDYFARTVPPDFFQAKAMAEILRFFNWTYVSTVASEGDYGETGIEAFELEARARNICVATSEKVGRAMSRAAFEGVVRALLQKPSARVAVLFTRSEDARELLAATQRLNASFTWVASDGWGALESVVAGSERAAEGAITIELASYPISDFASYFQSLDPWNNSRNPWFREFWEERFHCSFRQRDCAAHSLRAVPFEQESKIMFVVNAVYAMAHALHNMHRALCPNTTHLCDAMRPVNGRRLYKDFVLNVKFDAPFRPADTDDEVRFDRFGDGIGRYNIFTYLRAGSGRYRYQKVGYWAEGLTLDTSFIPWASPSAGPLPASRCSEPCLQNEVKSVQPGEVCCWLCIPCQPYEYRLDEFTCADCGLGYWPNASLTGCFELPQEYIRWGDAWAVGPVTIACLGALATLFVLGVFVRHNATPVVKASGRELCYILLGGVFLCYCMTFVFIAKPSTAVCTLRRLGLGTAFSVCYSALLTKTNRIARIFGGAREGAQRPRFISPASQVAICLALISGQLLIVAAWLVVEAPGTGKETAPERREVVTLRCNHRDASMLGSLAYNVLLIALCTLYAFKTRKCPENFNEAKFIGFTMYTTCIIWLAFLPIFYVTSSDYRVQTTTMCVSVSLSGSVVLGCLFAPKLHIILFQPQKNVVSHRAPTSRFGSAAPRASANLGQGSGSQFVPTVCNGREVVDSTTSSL
# procedure_details: Tested for the agonistic activity against Metabotropic glutamate receptor 2
readout_label: pIC50
Hey, just a heads up that pIC50 is the negative log base 10 of the concentration in molar.

Per the record, N[C@]1(C(=O)O)C[C@H](C(=O)O)N(Cc2ccccc2)C1 has pIC50 of 3.70

Source of measurements: ChEMBL document CHEMBL1129857
